- System: MCF-7
- assay remarks: viability inhibition at highest dose (% inhibition); higher = more growth inhibition
- conditions used: 4-OH-tamoxifen in medium 0 µM; 72 h
observation type: viability inhibition at highest dose
One number for each entry.

| compound | observation type | number |
| --- | --- | --- |
| CC[C@]1(O)C[C@@H]2CN(CCc3c([nH]c4ccccc34)[C@@](C(=O)OC)(c3cc4c(cc3OC)N(C)[C@H]3[C@@](O)(C(=O)OC)[C@H](OC(C)=O)[C@]5(CC)C=CCN6CC[C@]43[C@@H]65)C2)C1 [Vinblastine] (drug 1000 nM) | viability inhibition at highest dose | 51.4 |

For each entry beneath this line, provide reported viability inhibition at highest dose.
1. Cc1ccc(F)c(NC(=O)Nc2ccc(-c3cccc4[nH]nc(N)c34)cc2)c1 [Linifanib (ABT-869)] (drug 1000 nM)
2. COc1cc(OC2CCN(C)CC2)ccc1Nc1ncc2c(n1)n(C1CCCC1)c(=O)n2C [AZ 3146] (drug 10000 nM)
3. C[C@]12CC[C@@H]3c4ccc(OC(=O)N(CCCl)CCCl)cc4CC[C@H]3[C@@H]1CC[C@@H]2O [Estramustine] (drug 990000 nM)

(A)
1. -7.63
2. 24.5
3. -17

Provide viability inhibition at highest dose values for the following items, in order.
1. C=CC(=O)Nc1cc2c(Nc3ccc(F)c(Cl)c3)ncnc2cc1OCCCN1CCOCC1 [Canertinib] (drug 10000 nM)
2. Nc1nc(Cl)nc2c1ncn2[C@H]1C[C@H](O)[C@@H](CO)O1 [Cladribine] (drug 1000 nM)

(A)
1. 64.2
2. -15.2
